The reader will find reported Bliss excess values listed item by item below.
System: NCI-H441 (Lung Adenocarcinoma);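 note: after 72 h of two-drug dosing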
Assay: Bliss excess, mean over the matrix (fraction); higher = more synergy
Please respond with just the number, no unit label.

# example entries with known answers
1. C[C@@H](Oc1cc(-c2cnn(C3CCNCC3)c2)cnc1N)c1c(Cl)ccc(F)c1Cl [Crizotinib] + Cn1cnc2c(F)c(Nc3ccc(Br)cc3Cl)c(C(=O)NOCCO)cc21 [Selumetinib] (first compound max 10 µM, 7x7, partner max 10 µM)    0.0148
2. O=C(c1cc(Cc2n[nH]c(=O)c3ccccc23)ccc1F)N1CCN(C(=O)C2CC2)CC1 [Olaparib] + CN(CC[C@H](CSC1=CC=CC=C1)NC2=C(C=C(C=C2)S(=O)(=O)NC(=O)C3=CC=C(C=C3)N4CCC(CC4)[C@H](C5=CC=CC=C5C6=CC=C(C=C6)Cl)O)S(=O)(=O)C(F)(F)F)CCO [AZD4320] (first compound max 10 µM, 7x7, partner max 1 µM)    -0.0587
3. C=CCn1c(=O)c2cnc(Nc3ccc(N4CCN(C)CC4)cc3)nc2n1-c1cccc(C(C)(C)O)n1 [AZD1775] + O=C(c1cc(Cc2n[nH]c(=O)c3ccccc23)ccc1F)N1CCN(C(=O)C2CC2)CC1 [Olaparib] (first compound max 1 µM, partner max 10 µM)    -0.0662

response.value for CCN(CCO)CCCOc1ccc2c(Nc3cc(CC(=O)Nc4cccc(F)c4)[nH]n3)ncnc2c1 [AZD2811] + C[C@@H]1COCCN1C2=NC(=NC(=C2)C3(CC3)[S@](=N)(=O)C)C4=C5C=CNC5=NC=C4 [AZD6738] (first compound max 1 µM, 7x7, partner max 10 µM) (field: Bliss excess) = -0.0324
